target: sLFA-1/ICAM-1 (Homo sapiens, UniProt P05107+P20701, DEL701-769); test: sLFA-1/ICAM-1 ELISA (inhibition of 5dICAM-Fc binding to coated receptor); settings: control compounds; ICAM-1 binding ELISA, sLFA-1 or Mac-1 coated plates
Sequence (P20701 26-1090 limits assumed, stated change not applied): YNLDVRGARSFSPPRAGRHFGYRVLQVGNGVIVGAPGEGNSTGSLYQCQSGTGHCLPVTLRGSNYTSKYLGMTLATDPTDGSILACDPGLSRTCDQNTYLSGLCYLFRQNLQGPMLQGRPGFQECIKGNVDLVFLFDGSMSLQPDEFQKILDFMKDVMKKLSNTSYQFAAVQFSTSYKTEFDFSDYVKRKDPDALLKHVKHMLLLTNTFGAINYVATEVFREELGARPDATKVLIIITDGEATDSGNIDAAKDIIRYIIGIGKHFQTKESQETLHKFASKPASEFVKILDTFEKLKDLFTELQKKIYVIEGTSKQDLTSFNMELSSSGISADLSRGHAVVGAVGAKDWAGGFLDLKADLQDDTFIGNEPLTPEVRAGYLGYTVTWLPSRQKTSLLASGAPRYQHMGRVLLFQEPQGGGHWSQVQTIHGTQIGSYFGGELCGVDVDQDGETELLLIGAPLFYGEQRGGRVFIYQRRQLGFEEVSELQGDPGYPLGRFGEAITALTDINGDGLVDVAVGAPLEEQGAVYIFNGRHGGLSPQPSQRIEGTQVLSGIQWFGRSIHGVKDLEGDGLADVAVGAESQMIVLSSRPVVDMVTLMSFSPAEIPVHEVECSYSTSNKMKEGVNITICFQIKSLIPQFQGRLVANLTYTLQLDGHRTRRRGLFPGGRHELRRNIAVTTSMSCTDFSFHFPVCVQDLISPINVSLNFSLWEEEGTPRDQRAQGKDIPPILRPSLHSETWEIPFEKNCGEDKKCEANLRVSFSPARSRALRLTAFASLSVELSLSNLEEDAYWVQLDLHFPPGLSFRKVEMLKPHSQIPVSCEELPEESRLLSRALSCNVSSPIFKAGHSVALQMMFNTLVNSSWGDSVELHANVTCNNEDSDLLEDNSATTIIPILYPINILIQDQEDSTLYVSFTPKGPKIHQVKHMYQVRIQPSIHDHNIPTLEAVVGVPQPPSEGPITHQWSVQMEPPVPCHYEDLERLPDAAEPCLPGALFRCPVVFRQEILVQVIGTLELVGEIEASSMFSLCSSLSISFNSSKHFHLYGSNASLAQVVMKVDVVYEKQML
Sequence (P05107 23-700 limits assumed, stated change not applied): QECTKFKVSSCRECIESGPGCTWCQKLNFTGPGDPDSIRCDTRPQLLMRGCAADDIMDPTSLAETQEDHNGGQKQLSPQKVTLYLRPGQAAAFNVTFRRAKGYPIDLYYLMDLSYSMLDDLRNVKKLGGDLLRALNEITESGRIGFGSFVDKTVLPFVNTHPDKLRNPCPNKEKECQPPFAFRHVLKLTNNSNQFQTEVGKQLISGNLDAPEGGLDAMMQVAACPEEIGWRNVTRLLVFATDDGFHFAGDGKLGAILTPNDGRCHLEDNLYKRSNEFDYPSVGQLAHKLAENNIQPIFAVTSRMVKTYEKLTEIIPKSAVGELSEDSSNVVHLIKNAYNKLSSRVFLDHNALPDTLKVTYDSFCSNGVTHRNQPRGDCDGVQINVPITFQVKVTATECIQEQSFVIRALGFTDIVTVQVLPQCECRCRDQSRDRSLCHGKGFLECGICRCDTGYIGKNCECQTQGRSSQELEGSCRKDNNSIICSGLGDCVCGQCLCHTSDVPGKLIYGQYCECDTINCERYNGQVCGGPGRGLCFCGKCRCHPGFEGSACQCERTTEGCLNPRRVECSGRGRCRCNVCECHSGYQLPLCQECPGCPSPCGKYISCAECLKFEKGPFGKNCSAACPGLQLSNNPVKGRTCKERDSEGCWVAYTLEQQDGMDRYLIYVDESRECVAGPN
Attribute: IC50

structure: O=C(NCc1cccc(O)c1)c1cc(Cl)c(C(=O)N[C@@H](CNC(=O)c2cc(O)cc(O)c2)C(=O)O)c(Cl)c1
IC50: ~11 nM

# context switch: different compound, same IC50
Give sLFA-1/ICAM-1 (Homo sapiens, UniProt P05107+P20701, DEL701-769) IC50 for `Cc1cc(C(=O)NCc2cccc(O)c2)cc(C)c1C(=O)N[C@@H](CNC(=O)c1cccs1)C(=O)O` ~37 nM
